Exercise: for every item that follows, state its recorded MIC.

State MIC (E. coli TEM-148) of "NCC[C@H](O)C(=O)N[C@@H]1C[C@H](N)[C@@H](O[C@H]2O[C@H](CN)[C@@H](O)[C@H](O)[C@H]2O)[C@H](O)[C@H]1O[C@H]1O[C@H](CO)[C@@H](O)[C@H](N)[C@H]1O" . ≤ 2 µg/mL

State MIC (E. coli TEM-148) of "CC1(C)S[C@@H]2[C@H](NC(=O)[C@H](N)c3ccccc3)C(=O)N2[C@H]1C(=O)O" . ≥ 32 µg/mL

State MIC (E. coli TEM-148) of "CC(C)(O/N=C(\C(=O)N[C@@H]1C(=O)N2C(C(=O)[O-])=C(C[n+]3ccccc3)CS[C@H]12)c1csc(N)n1)C(=O)O" . ≤ 1 µg/mL

The origin of these recorded values is patent US20240165196A1.
